tested on: EKVX NSCLC; experiment: NCI-60 one-dose screen, 48 h (100 = growth as untreated, 0 = no growth, -100 = all killed); details: 10 µM unless noted
The panel holds about 83,000 compounds, 20% with a hit somewhere; the sample as a whole holds those more often.
// NB: equality with 90% counts as FALSE; only growth strictly below is TRUE

Past entries and their recorded results:
molecule=Cc1ccc(-c2cc(-c3ccccc3C)[nH]c(=O)c2C#N)s1 target_under_test="EKVX NSCLC" label_value=FALSE
molecule=COc1ccc(-c2nc(SCCC(C)C)nc(N/N=C\c3ccccc3O)c2C#N)cc1 target_under_test="EKVX NSCLC" label_value=FALSE

Exercise: Hello, I'm reviewing records and need to know if growth of `C=C1C(=O)O[C@H]2[C@H]1CC/C(COC(=O)C(=O)c1cn(C)c3ccc(OC)cc13)=C\CC[C@@]1(C)O[C@@H]21` is below 90%. Could you check?
Solution: TRUE

Exercise: Hello, I'm reviewing records and need to know if growth of CCSC1=NC2C(N(CC)C(=O)N2CC)N1/N=C/C=C/c1ccccc1[N+](=O)[O-] (stereo not given) is below 90%. Could you check?
Solution: TRUE
